# System: NRF2
# assay remarks: qPCR analysis of NRF2-regulated genes
# Assay type: cell-based, human
# run parameters: Homo sapiens, 24 h; Assay 12(o); at 10 uM, qPCR; read-out: Induction of NRF2-regulated genes: GCLC normalized fold-change
measure: fold induction at 10 µM
Field format: numeric only.

# input Give its fold induction at 10 µM value. Item: O=C(NCc1cccnc1)/C(=C/c1ccc(-c2ccc(Cl)cc2)o1)S(=O)(=O)c1ccccc1
# output 2.27

# input Same lookup for [O-][n+]1onc2c3nsnc3c(Br)cc21 , please.
# output 1.36

# input Same lookup for Cc1cc(C)c(C(=O)/C=C/c2ccccc2F)c(O)n1 , please.
# output 2.1

# input Same lookup for Cc1ccc(NC(=O)c2ccc([N+](=O)[O-])o2)cc1C , please.
# output 1.35

# input Same lookup for O=C(NCc1cccnc1)/C(=C\c1cccc(Oc2ccccc2)c1)S(=O)(=O)c1ccccc1 , please.
# output 0.6

# input Same lookup for CCc1ccccc1NC(=O)c1ccc([N+](=O)[O-])o1 , please.
# output 1.65

# input Same lookup for N=C1S/C(=C\c2cn(-c3ccccc3)nc2-c2cccs2)C(=O)N1c1nccs1 , please.
# output 0.33

# input Same lookup for COc1ccc(C(=O)/C=C/c2cccc(Cl)c2)c(OC)c1 , please.
# output 2.51

# input Same lookup for COc1ccc(/C=C2\SC(=N)N(c3nccs3)C2=O)cc1 , please.
# output 0.51

# input Same lookup for CC(C)(C)c1ccc(OCC(=O)Nc2ccc3c4c(cccc24)C(=O)NC3=O)cc1 , please.
# output 0.66

# input Same lookup for O=C(Nc1cc(C(F)(F)F)ccc1Cl)c1ccc([N+](=O)[O-])o1 , please.
# output 1.24

# input Same lookup for NS(=O)(=O)c1ccc(NC(=O)c2ccc([N+](=O)[O-])o2)cc1 , please.
# output 1.48

# input Same lookup for CCCC(=O)Nc1ccc(-c2cn3cccc(C)c3n2)cc1 , please.
# output 0.54

# input Same lookup for COC(=O)CCc1sc2c(c1[N+](=O)[O-])NC(=O)CCC2 , please.
# output 1.76

# input Same lookup for COc1cccc(/C=C2\CN(C)C/C(=C\c3cccc(OC)c3OC)C2=O)c1OC , please.
# output 0.67

# input Same lookup for O=C(c1ccc([N+](=O)[O-])o1)N1CCc2ccccc21 , please.
# output 1.99

# input Same lookup for O=C(Nc1ccc(Cl)c(Cl)c1)c1ccc([N+](=O)[O-])o1 , please.
# output 1.57

# input Same lookup for O=C(Nc1cccc(C(F)(F)F)c1)c1ccc([N+](=O)[O-])o1 , please.
# output 1.36

# input Same lookup for Oc1nc(-c2ccccn2)nc2c1Cc1cc(F)ccc1O2 , please.
# output 0.7
